# EXPERIMENT_DESCRIPTION: Human HepG2 cell viability assay in 384 well format
# Assay type: toxicity, cell-based
# Set-up: dose 125 nL, time 70.5 hour; concentration not given beside the values
# CONDITION: HepG2 cells, read-out: Inhibition
ENDPOINT_LABEL: cytotoxicity at 70.5 h (%)
Field format: number, assumed %, no unit text.

Consider the reported cytotoxicity at 70.5 h for these compounds:
1) O=C(NCc1ccc2c(c1)OCO2)c1ccc(N2CCCCCC2)nc1    2.76
2) CC1CCCCN1C1CN(c2ccnc(C(=O)NCc3ccco3)c2)C1 (stereo unspecified)    -15.4
3) COc1ccc2nc(C3CC3)cc(C(=O)NCC(=O)N(C)C)c2c1    -2.45
4) Fc1cccnc1O[C@@H]1CN(Cc2ccccn2)[C@@H]2CCCO[C@@H]21    -10.3

Name the recorded cytotoxicity at 70.5 h for CCN1Cc2nc(OC)c(CNC(=O)C3CCS(=O)(=O)CC3)cc2C1=O .
-2.6

Continue with CC(C)c1nccn1CCCNC(=O)c1ccc(-c2cccnc2)nc1
-9.12

Continue with Cc1cccc(COc2ccc(NC(=O)C(C)NC(N)=O)c(C)c2)c1 (stereo unspecified)
-9.19

Continue with COc1cccc2c1ccn2CCC(=O)Nc1c2c(nn1C)CSC2
-11.9

Continue with CS(=O)(=O)CCC(=O)Nc1ccsc1
-14.4

Continue with Cn1cc(CNCCNc2ncc(Cl)cc2Cl)cn1
-4.79

Continue with CS(=O)(=O)c1ccc2c(c1)N(C(=O)c1cccc(F)c1)CCC2
-4.57

====

# EXPERIMENT_DESCRIPTION: Human HepG2 cell viability assay in 384 well format
# Assay type: toxicity, cell-based
# Set-up: dose 125 nL, time 70.5 hour; concentration not given beside the values
# CONDITION: HepG2 cells, read-out: Inhibition
Property: cytotoxicity at 70.5 h; scope: individual molecules
Field format: number, assumed %, no unit text.

Consider the reported cytotoxicity at 70.5 h for these molecules:
1) CCc1nc(C2CCCN2CC(=O)Nc2nnc(C)s2)no1 (configuration not stated)    -13.4
2) Cc1cnn(CC(C)NCc2ccc(C#N)cc2)c1 (configuration not stated)    0.599
3) CCn1c(C)nnc1SCCNc1nc(C)nc2c1cnn2C    -9.87
4) CN(CCc1ccccc1)Cc1nc(Cc2cccc(F)c2)no1    0.246
5) CC(Cc1cn(CCc2nc(N)cc(O)n2)nn1)c1ccccc1 (configuration not stated)    -11.4

Name the recorded cytotoxicity at 70.5 h for COc1cccc(C2C3=C(COC3=O)Nc3[nH]nc(C)c32)c1OC (configuration not stated) .
-3.26

Continue with O=C(CCc1ccncc1)N1CCc2c(ncnc2N2CCOCC2)C1
31.1

Continue with CC(=O)N1CCC[C@H]1C(=O)NCCOc1cccc(Cl)c1
0.931

Continue with COc1ccc(CNC(=O)CCn2cc(C)cn2)cc1C
26.7

Continue with COCCC(=O)Nc1ccnc(Oc2ccccc2)c1
2.24

Continue with CC1COCCN1Cc1nc(-c2ccc(Br)s2)no1 (configuration not stated)
1.52

Continue with Cc1cc(C)cc(N2CCN(C(=O)CCN3C[C@@H]4CC[C@H]3C4)CC2=O)c1
-11.2

====

# EXPERIMENT_DESCRIPTION: Human HepG2 cell viability assay in 384 well format
# Format: toxicity, cell-based
# Parameters: dose 125 nL, time 70.5 hour; concentration not given beside the values
# CONDITION: HepG2 cells, read-out: Inhibition
Property: cytotoxicity at 70.5 h; scope: individual compounds
Field format: number, assumed %, no unit text.

Consider the reported cytotoxicity at 70.5 h for these compounds:
1) O=C(c1ccncc1)N1CCCn2nnc(COCCO)c2C1    -5
2) CS(=O)(=O)N1CC2(CCN(C3COC3)C2)Cc2ccccc21 (stereo not given)    -4.95
3) N#Cc1csc(CNCCOc2ccccc2)c1    0.519
4) c1ccc(-c2nnc3ccc(N4CCC5(CCOC5)C4)nn23)cc1 (stereo not given)    5.72

Name the recorded cytotoxicity at 70.5 h for CN(C)C(=O)CO[C@H]1COCCN(C2CCOCC2)C1 .
-4.86

Continue with CCOCC(=O)N1CCCn2c(nnc2Cn2cccc2)C1
3.11

Continue with CNc1nc(C(=O)N2CCN(c3ccc(Cl)c(Cl)c3)CC2)cs1
-6.48

Continue with CCCc1nc(C(C)(C)NC(=O)C2CC(=O)N(CC)C2)no1 (stereo not given)
-13

Continue with COCCN1CCC(NCc2cccnc2)C1 (stereo not given)
2.68

Continue with Cc1oc(-c2cccc(F)c2F)nc1CN(C)CCO
-7.35

Continue with COc1ccc(OC)c(NC(=O)c2nc3ccccc3n(C)c2=O)c1
-7.65

Continue with Cc1n[nH]c(C)c1CC(=O)NCCc1ccccc1
14.3

Continue with Cc1cc(C)n(-c2ccc(N3CCC(O)CC3)nc2)n1
-1.96

Continue with Cc1ccc(-c2cn3c(n2)CO[C@@H](CNCc2cccnc2)C3)cc1
11

Continue with COCC1CC2(CCN(C(=O)c3cncc(C)c3)CC2)CO1 (stereo not given)
9.94

Continue with COc1ccc(Cn2c(Cc3c(C)n[nH]c3C)n[nH]c2=O)cc1
-12.9

Continue with Cc1oncc1C(=O)NCc1cc(=O)n2c(n1)CN(C(C)C)CCC2
-4.07

Continue with CCOc1ncccc1CNC(=O)c1cccc(C)n1
-17.3

Continue with COCC(=O)N1CCN(Cc2nnc(C(C)(C)C)o2)CC1
-1.83

Sourced from ChEMBL document CHEMBL3507680
